target: light-activated rhodopsin (Bos taurus, UniProt P02699); construct: Bovine rod outer segments (rhodopsin-containing membranes) were prepared from fresh retinas; from tissue; host or cells: bovine retina, rod outer segment membranes (EDTA- and urea-washed); assay: ELISA binding of MBP-peptide fusion proteins to light-activated rhodopsin; design: species or system bovine; settings: MBP-high affinity peptide fusion proteins; read-out: MII binding EC50
Sequence (P02699 whole entry, the tested form may be a part): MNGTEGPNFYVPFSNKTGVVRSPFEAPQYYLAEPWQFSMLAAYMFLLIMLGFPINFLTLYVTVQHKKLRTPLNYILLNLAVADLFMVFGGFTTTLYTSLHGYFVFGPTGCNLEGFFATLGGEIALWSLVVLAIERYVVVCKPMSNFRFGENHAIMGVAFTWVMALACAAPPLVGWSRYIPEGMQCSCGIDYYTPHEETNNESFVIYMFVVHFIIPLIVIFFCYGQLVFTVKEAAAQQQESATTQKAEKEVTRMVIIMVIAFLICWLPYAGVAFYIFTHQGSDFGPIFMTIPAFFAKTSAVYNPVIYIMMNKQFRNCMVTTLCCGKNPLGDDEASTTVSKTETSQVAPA
pEC50: −log10 of the molar value.
outcome measure: pEC50

Example results:
* MLKNLKDCGMF [MBP-24] | 8.18
* LLENLRDCGMF [Peptide 8] | 8.11
* ICENLKDCGLF [MBP-10] | 7.38
* LQQVLKDCGLL [MBP-9] | 8.00

A = MLENLKDCGLF [MBP-18]
B = VLEDLKSCGLF [MBP-23]
C = IKENLKDCGLF [Gt, reference compound]
Hey, quick one: sort these by pEC50, low to high? Provide your answer as the labels ordered per the instruction.
C, B, A
(C: 5.22, B: 7.70, A: 8.42)

* * *

Molecular target: PAR1 (Homo sapiens, UniProt P25116)
Sequence (P25116 22-425): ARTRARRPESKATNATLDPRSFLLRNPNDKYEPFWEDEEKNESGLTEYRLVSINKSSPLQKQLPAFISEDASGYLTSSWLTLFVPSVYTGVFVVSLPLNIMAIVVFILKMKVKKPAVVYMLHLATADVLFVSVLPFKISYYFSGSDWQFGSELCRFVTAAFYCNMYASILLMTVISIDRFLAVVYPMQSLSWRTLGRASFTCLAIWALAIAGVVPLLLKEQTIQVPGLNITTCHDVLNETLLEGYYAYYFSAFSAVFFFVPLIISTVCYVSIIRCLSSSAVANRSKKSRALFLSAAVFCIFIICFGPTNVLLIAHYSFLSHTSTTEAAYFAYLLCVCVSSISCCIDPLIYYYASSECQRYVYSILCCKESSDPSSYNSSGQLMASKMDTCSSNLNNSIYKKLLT
Test: ELISA binding of purified MBP clones to SF9 membranes expressing PAR1 or muscarinic M1 receptor
Design: expressed in transfected cells; host or cells: membranes of Sf9 insect cells infected with ThR/pBluebac recombinant virus
Conditions: purified MBP clones, SF9 membranes
Where no end group is shown, it is not given here.
outcome measure: binding affinity for PAR1 (in words)

- QRLNVGEYNLV (also: fused to MBP) [PAR-34, MBP clone, linker LPQM]: high affinity binding
- LHLNLKEYNLV (also: fused to MBP) [PAR-33, MBP clone, linker LSTN]: low affinity
- LQQKLKEYSLV (also: fused to MBP) [PAR-23, MBP clone, linker LSRS]: low affinity
- LQLNRNEYYLV (also: fused to MBP) [PAR-13, MBP clone, linker VRPS]: high affinity binding

* * *

Listed here are sequences together with their documented ELISA OD450.
biological target: light-activated rhodopsin (Bos taurus); construct: Bovine rod outer segments (rhodopsin-containing membranes) were prepared from fresh retinas; from tissue; host or cells: bovine retina, rod outer segment membranes (EDTA- and urea-washed); test: ELISA binding of MBP-peptide fusion proteins to light-activated rhodopsin; set-up: species or system bovine; conditions: absorbance at OD450 in a panning ELISA; MBP-high affinity peptide fusion proteins

Consider the worked cases shown below.
- MLENLKDCGLF [MBP-18]: .58
- ICENLKDCGLF [MBP-10]: .36
- VLEDLKSCGLF [MBP-23]: .66

Look up ELISA OD450 for this sequence: LQQVLKDCGLL [MBP-9]
.35

What measured ELISA OD450 goes with LLENLRDCGMF [Peptide 8] ?
.54

Quick check: ELISA OD450 of IKENLKDCGLF [Gt, reference compound] ?
.01

For the sequence shown here, MLKNLKDCGMF [MBP-24] , give the reported ELISA OD450.
.61
